tested-on: human SGLT1 (Homo sapiens, UniProt P13866)
Construct: expressed in transfected cells
Sequence (P13866 1-664): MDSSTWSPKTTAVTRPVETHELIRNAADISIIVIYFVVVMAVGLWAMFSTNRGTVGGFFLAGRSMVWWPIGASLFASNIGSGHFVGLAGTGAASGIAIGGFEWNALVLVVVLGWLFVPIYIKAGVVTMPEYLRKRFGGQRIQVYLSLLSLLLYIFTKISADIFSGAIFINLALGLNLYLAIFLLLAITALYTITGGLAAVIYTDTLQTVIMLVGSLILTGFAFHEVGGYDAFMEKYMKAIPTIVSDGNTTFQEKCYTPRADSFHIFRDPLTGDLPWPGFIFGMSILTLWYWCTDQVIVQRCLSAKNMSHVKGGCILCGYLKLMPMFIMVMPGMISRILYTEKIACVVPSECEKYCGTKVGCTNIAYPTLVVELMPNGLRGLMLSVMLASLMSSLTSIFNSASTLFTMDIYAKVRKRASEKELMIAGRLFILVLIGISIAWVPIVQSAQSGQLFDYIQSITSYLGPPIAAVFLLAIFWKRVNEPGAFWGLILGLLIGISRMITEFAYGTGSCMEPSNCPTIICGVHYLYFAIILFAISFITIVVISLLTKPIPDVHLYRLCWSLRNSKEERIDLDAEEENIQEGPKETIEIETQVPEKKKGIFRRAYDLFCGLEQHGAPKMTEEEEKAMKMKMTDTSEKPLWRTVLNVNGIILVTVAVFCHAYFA
procedure-details: SGLT1 assay: Na-dependent 14C-AMG uptake in CHO-K1 cells stably expressing human SGLT1
Format: cell-based
assay-conditions: @ 0.3 μM
Give SGLT1 %-inhibition for every item shown.
Numbers only, in % @ 0.3 μM.

COc1cc(Cl)c(Cc2cc3c(s2)CCN(C(=O)N2CCCC2)C3)cc1[C@@H]1O[C@H](CO)[C@@H](F)[C@H](O)[C@H]1O [Compound 96] ... 29.1

Below is a list of compounds. For each, state its recorded SGLT1 %-inhibition.
1. CCc1ccc([C@@H]2O[C@H](CO)[C@@H](F)[C@H](O)[C@H]2O)cc1Cc1ccc2c(c1)OC(F)(F)O2 [Compound 158]
2. COc1cc(Cl)c(Cc2cc3c(s2)CCN(C(C)=O)C3)cc1[C@@H]1O[C@H](CO)[C@@H](F)[C@H](O)[C@H]1O [Compound 77]

Result block:
1. 2.6
2. 30.3

###

tested-on: human SGLT2 (Homo sapiens, UniProt P31639)
Sequence (P31639 whole entry): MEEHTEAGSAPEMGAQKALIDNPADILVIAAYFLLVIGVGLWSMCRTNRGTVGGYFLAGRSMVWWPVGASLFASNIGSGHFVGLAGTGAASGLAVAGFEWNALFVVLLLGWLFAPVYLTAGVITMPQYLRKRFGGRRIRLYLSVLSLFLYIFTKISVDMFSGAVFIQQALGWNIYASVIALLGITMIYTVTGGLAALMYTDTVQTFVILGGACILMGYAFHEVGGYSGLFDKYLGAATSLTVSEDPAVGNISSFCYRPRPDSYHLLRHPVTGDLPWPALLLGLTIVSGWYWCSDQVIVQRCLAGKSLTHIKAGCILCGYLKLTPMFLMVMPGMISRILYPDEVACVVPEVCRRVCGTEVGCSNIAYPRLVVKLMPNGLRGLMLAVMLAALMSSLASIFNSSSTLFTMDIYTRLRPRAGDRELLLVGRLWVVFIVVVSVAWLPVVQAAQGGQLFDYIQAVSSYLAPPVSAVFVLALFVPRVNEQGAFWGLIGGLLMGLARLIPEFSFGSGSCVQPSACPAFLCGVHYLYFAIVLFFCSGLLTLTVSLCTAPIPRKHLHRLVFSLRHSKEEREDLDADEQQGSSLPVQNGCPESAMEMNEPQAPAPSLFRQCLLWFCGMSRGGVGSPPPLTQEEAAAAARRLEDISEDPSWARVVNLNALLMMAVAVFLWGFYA
procedure-details: SGLT2 assay: Na-dependent 14C-AMG uptake in CHO-K1 cells stably expressing human SGLT2
assay-conditions: average if tested more than once
pIC50: −log10 of the molar value.
The threshold is inclusive: pIC50 of exactly 8 counts as True; values below receive False.

Worked examples follow.
COc1c([C@@H]2O[C@H](CO)[C@@H](F)[C@H](O)[C@H]2O)cc(Cc2ccc3c(c2)NCCC3)c2c1CCO2 ... True
COc1cc(C)c(Cc2cc3c(s2)CCN(c2ncc(C)s2)C3)cc1[C@@H]1O[C@H](CO)[C@@H](F)[C@H](O)[C@H]1O ... False

Turning to the following molecule.
Query block: Would you say Cc1cc(O)c([C@@H]2O[C@H](C)[C@@H](F)[C@H](O)[C@H]2O)cc1Cc1cc2ccccc2s1 shows pIC50 at minimum 8?
Result block: False

###

tested-on: human SGLT2 (Homo sapiens)
Construct: expressed in transfected cells
procedure-details: SGLT2 assay: Na-dependent 14C-AMG uptake in CHO-K1 cells stably expressing human SGLT2
Type: cell-based
assay-conditions: @ 0.3 μM
The threshold is inclusive: SGLT2 %-inhibition of exactly 70 % @ 0.3 μM counts as Y; values below receive N.

Worked examples follow.
CC(C)Oc1cc(O)c([C@@H]2O[C@H](CO)[C@@H](F)[C@H](O)[C@H]2O)cc1Cc1cc2ccccc2s1 ... N
OC[C@H]1O[C@@H](c2cc(Cc3ccc4c(c3)SCCO4)c(Cl)c3c2OCC3)[C@H](O)[C@@H](O)[C@@H]1F ... Y
Cc1cnc(N2CCc3sc(Cc4cc([C@@H]5O[C@H](CO)[C@@H](F)[C@H](O)[C@H]5O)ccc4C)cc3C2)s1 [Compound 122] ... N

Turning to the following molecule.
Query block: Would you say Cc1cc(O)c([C@@H]2O[C@H](CO)[C@@H](F)[C@H](O)[C@H]2O)cc1Cc1cc2c(s1)CCN(C(=O)N1CCOCC1)C2 shows SGLT2 %-inhibition at minimum 70 % @ 0.3 μM?
Result block: N

###

tested-on: human SGLT2 (Homo sapiens)
Construct: expressed in transfected cells
procedure-details: SGLT2 assay: Na-dependent 14C-AMG uptake in CHO-K1 cells stably expressing human SGLT2
Type: cell-based
assay-conditions: @ 0.3 μM
metric: SGLT2 %-inhibition (% @ 0.3 μM)
Answers are plain numbers, in % @ 0.3 μM.

Examples with their reported SGLT2 %-inhibition follow.
COc1cc(Cl)c(Cc2cc3c(s2)CCN(C#N)C3)cc1[C@@H]1O[C@H](CO)[C@@H](F)[C@H](O)[C@H]1O ... 83.5
Cc1ccc([C@@H]2O[C@H](CO)[C@@H](F)[C@H](O)[C@H]2O)cc1Cc1cc2c(s1)CCCC2=O ... 78.0
CC1COc2c(Cc3ccc4c(c3)OCCO4)cc(C3OC(CO)C(F)C(O)C3O)cc21 (mixture of isomers) ... 62.7
COc1ccc([C@@H]2O[C@H](CO)[C@@H](F)[C@H](O)[C@H]2O)cc1Cc1cc2c(s1)CCN(C#N)C2 ... 54.7
N#CN1CCc2sc(Cc3cc([C@@H]4O[C@H](CO)[C@@H](F)[C@H](O)[C@H]4O)ccc3Cl)cc2C1 ... 79.8

Below is a list of compounds. For each, state its recorded SGLT2 %-inhibition.
1. COc1cc(OCC#N)c([C@@H]2O[C@H](C(C)O)[C@@H](F)[C@H](O)[C@H]2O)cc1Cc1cc2ccccc2s1 (single isomer, unassigned)
2. [2H]C([2H])(c1ccc2c(c1)OCCO2)c1cc([C@@H]2O[C@H](CO)[C@@H](F)[C@H](O)[C@H]2O)ccc1CC

Result block:
[30.0, 61.9]

###

tested-on: human SGLT1 (Homo sapiens, UniProt P13866)
Construct: expressed in transfected cells
procedure-details: SGLT1 assay: Na-dependent 14C-AMG uptake in CHO-K1 cells stably expressing human SGLT1
Type: cell-based
assay-conditions: @ 0.3 μM
Give SGLT1 %-inhibition for every item shown.
Numbers only, in % @ 0.3 μM.

Below is a list of compounds. For each, state its recorded SGLT1 %-inhibition.
1. Cc1cnc(N2CCc3sc(Cc4cc([C@@H]5O[C@H](CO)[C@@H](F)[C@H](O)[C@H]5O)ccc4C)cc3C2)s1 [Compound 113]
2. COC(=O)N1CCc2sc(Cc3cc([C@@H]4O[C@H](CO)[C@@H](F)[C@H](O)[C@H]4O)c(OC)cc3Cl)cc2C1
3. CN1CCCc2ccc(Cc3cc([C@@H]4O[C@H](CO)[C@@H](F)[C@H](O)[C@H]4O)cc4c3OCC4)cc21
4. COc1cc(OC)c([C@@H]2O[C@H](CO)[C@@H](F)[C@H](O)[C@H]2O)cc1Cc1cc2c(s1)CCN(C#N)C2

Result block:
1: 21.0; 2: 28.6; 3: 32.6; 4: 32.5

Below is a list of compounds. For each, state its recorded SGLT1 %-inhibition.
1. [2H]C([2H])(c1ccc2c(c1)OCCO2)c1cc([C@@H]2O[C@H](CO)[C@@H](F)[C@H](O)[C@H]2O)ccc1CC
2. COc1cc(Cl)c(Cc2cc3c(s2)CCN(C(=O)c2nccs2)C3)cc1[C@@H]1O[C@H](CO)[C@@H](F)[C@H](O)[C@H]1O

Result block:
1. 47.7
2. 29.4

###

tested-on: human SGLT1 (Homo sapiens, UniProt P13866)
Construct: expressed in transfected cells
Sequence (P13866 1-664): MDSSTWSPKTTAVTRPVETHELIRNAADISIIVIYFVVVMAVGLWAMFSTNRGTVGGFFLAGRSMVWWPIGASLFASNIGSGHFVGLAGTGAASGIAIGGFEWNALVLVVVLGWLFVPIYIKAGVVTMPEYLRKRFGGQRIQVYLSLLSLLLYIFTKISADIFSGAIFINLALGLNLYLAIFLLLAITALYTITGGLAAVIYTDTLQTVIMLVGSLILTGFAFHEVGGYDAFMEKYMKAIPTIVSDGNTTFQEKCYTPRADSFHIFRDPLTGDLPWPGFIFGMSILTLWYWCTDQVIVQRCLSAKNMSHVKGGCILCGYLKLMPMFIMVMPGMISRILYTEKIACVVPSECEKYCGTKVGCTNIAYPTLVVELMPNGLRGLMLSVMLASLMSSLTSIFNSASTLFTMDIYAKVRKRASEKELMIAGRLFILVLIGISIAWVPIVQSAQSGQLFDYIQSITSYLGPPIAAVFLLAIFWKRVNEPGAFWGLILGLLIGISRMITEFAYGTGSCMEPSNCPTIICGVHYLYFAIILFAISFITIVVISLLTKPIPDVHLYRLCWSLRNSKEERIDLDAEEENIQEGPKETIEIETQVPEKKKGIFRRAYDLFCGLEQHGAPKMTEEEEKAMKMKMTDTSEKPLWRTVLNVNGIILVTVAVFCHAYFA
procedure-details: SGLT1 assay: Na-dependent 14C-AMG uptake in CHO-K1 cells stably expressing human SGLT1
Assay type: cell-based
assay-conditions: @ 0.3 μM
Procedure: The ability of the compounds of formula (I) of the present invention to treat an SGLT-mediated condition was determined using the following procedures: […] Inhibition of SGLT1 and SGLT2 activity was assessed in CHO K1 cells stably expressing either human SGLT1 or SGLT2, using the SGLT specific glucose analog methyl-glucopyranoside (Sigma Catalog No. M-9376). […] The cells were then solubilized by adding 60 μl of MICROSCINT™20 and the Na-dependent ^14C-AMG uptake was quantified by measuring radioactivity. […]
metric: SGLT1 %-inhibition (% @ 0.3 μM)
One number for each entry, in % @ 0.3 μM.

Examples with their reported SGLT1 %-inhibition follow.
Cc1ccc([C@@H]2O[C@H](CO)[C@@H](F)[C@H](O)[C@H]2O)cc1Cc1cc2c(s1)CCN(C(=O)C1CCCC1)C2 [Compound 87] ... 48.7
Cc1cnc(N2CCc3sc(Cc4cc([C@@H]5O[C@H](CO)[C@@H](F)[C@H](O)[C@H]5O)ccc4C)cc3C2)s1 [Compound 122] ... 31.7
Cc1cnc(N2CCc3sc(Cc4cc([C@@H]5O[C@H](CO)[C@@H](F)[C@H](O)[C@H]5O)c(O)cc4C)cc3C2)s1 [Compound 117] ... 44.3
COc1ccc([C@@H]2O[C@H](CO)[C@@H](F)[C@H](O)[C@H]2O)cc1Cc1cc2c(s1)CCN(C#N)C2 [Compound 120] ... 6.6

Below is a list of compounds. For each, state its recorded SGLT1 %-inhibition.
1. COC[C@H]1O[C@@H](c2cc(Cc3cc4ccccc4s3)c(C)cc2O)[C@H](O)[C@@H](O)[C@@H]1F [Compound 19]
2. COC(=O)N1CCc2sc(Cc3cc([C@@H]4O[C@H](CO)[C@@H](F)[C@H](O)[C@H]4O)c(OC)cc3OC)cc2C1 [Compound 83]
3. Cc1cc(O)c([C@@H]2O[C@H](CO)[C@@H](F)[C@H](O)[C@H]2O)cc1Cc1cc2c(s1)CCN(C(=O)N1CCOCC1)C2 [Compound 67]

Result block:
[47.6, 17.4, 64.9]

Below is a list of compounds. For each, state its recorded SGLT1 %-inhibition.
1. Cc1ccc([C@@H]2O[C@H](CO)[C@@H](F)[C@H](O)[C@H]2O)cc1Cc1cc2c(s1)CCN(C(=O)N1CCCC1)C2 [Compound 78]
2. [2H]C([2H])(c1ccc2c(c1)CCCO2)c1cc([C@@H]2O[C@H](CO)[C@@H](F)[C@H](O)[C@H]2O)ccc1CC [Compound 169]

Result block:
[28.4, 37.2]
